// provenance: ChEMBL document CHEMBL3433997

Biological target: Solute carrier family 2, facilitated glucose transporter member 1 (Homo sapiens) (UniProt P11166)
Sequence (P11166 whole entry): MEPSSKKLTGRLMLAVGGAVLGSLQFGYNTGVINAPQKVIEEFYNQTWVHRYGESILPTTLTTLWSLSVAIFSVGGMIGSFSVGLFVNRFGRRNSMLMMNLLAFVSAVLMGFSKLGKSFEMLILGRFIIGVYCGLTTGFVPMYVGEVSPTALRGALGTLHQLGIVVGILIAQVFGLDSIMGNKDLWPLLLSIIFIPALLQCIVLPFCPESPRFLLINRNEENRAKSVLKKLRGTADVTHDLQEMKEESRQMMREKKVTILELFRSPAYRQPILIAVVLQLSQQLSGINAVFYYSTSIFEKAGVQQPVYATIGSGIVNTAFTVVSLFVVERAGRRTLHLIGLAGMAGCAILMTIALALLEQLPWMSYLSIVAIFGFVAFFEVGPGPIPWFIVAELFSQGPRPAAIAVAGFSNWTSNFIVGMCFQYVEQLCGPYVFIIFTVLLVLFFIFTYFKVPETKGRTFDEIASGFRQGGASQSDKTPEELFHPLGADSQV
Assay: ST_JUDE_LEISH: Cytotoxicity at 2uM final concentration against transgenic Leishmania Mexicana promastigotes LmGLUT1 that are glucose transport deficient and complemented with the human glucose transporter GLUT1. Activity is measured by DNA content using SYBR green in vitro
Type: functional
Catalogue of inhibition readings, one per entry.
Provide the reading as a plain figure in %.

[
  {
    "molecule": "COC(=O)C(C)(C)c1ccc(CC(C)NCC(O)c2cccc(C(F)(F)F)c2)cc1 (stereo unspecified)",
    "inhibition, %": 10.5
  },
  {
    "molecule": "CN1C(=O)OC[C@@H]1Cc1ccc2[nH]cc(C3=CCN(Cc4ccccc4)CC3)c2c1",
    "inhibition, %": 2.44
  },
  {
    "molecule": "Cc1[nH]c2ccccc2c1C1=CCN(CCCCC2(C)C(=O)Nc3ccccc32)CC1 (stereo unspecified)",
    "inhibition, %": 2.98
  }
]

I'd like to know its inhibition. The molecule in question is O=C(/C=C/c1ccc(Cl)c(Cl)c1)N1CCC(CN2C3CCC2CC(c2c[nH]c4ccccc24)C3)CC1 (stereo unspecified)
2.43

Which inhibition is listed for COc1ccc(CC(C)NCC(O)c2cccc(Br)c2)cc1 (stereo unspecified) ?
10.3

###

Reported values of inhibition for individual entries
Biological target: Hexose transporter 1 (Plasmodium falciparum)
Assay: ST_JUDE_LEISH: Cytotoxicity at 2uM final concentration against transgenic Leishmania Mexicana promastigotes LmPfHT that are glucose transport deficient and complemented with the Plasmodium falciparum hexose transporter. Activity is measured by DNA content using SYBR green in vitro
Assay type: functional
Give the value, in units of %, as a plain number.

A selection of reference data follows.
[
  {
    "compound": "Cc1cccc(C(=O)Nc2ccnc(N(C)C3CCN(CC(C)C)CC3)c2)c1",
    "target_desc": "Hexose transporter 1 (Plasmodium falciparum)",
    "unit_string": "%",
    "numeric_value": 0.85
  },
  {
    "compound": "CN1CC[C@H](N(Cc2ccccc2F)c2ccc(C#N)c(Cl)c2)C1",
    "target_desc": "Hexose transporter 1 (Plasmodium falciparum)",
    "unit_string": "%",
    "numeric_value": 3.02
  },
  {
    "compound": "CCc1ccc(CC(C)NCC(O)c2ccccc2)cc1 (configuration not stated)",
    "target_desc": "Hexose transporter 1 (Plasmodium falciparum)",
    "unit_string": "%",
    "numeric_value": 1.04
  },
  {
    "compound": "CCCCCCCc1cc(=O)c2ccccc2[nH]1",
    "target_desc": "Hexose transporter 1 (Plasmodium falciparum)",
    "unit_string": "%",
    "numeric_value": 3.61
  },
  {
    "compound": "CN(CC(=O)N1CCN(S(=O)(=O)c2cccc(Cl)c2)CC1CN1CCCC1)c1ccc(Cl)c(Cl)c1 (configuration not stated)",
    "target_desc": "Hexose transporter 1 (Plasmodium falciparum)",
    "unit_string": "%",
    "numeric_value": 1.78
  },
  {
    "compound": "CC(C)/C(=C(/F)CN1C(=O)C(NC(=O)c2cc3ccccc3[nH]2)C(=O)N(c2ccccc2)c2ccccc21)c1ccccc1 (configuration not stated)",
    "target_desc": "Hexose transporter 1 (Plasmodium falciparum)",
    "unit_string": "%",
    "numeric_value": -0.22
  },
  {
    "compound": "COc1cc2nc(N(C)C3CCN(Cc4ccccc4)CC3)nc(N)c2cc1OC",
    "target_desc": "Hexose transporter 1 (Plasmodium falciparum)",
    "unit_string": "%",
    "numeric_value": 46.7
  },
  {
    "compound": "O=C(CNC1CCCCC1)c1ccc(O)c(O)c1",
    "target_desc": "Hexose transporter 1 (Plasmodium falciparum)",
    "unit_string": "%",
    "numeric_value": 87.1
  },
  {
    "compound": "Cc1cc2cc(CNCCc3ccccc3Br)ccc2nc1N",
    "target_desc": "Hexose transporter 1 (Plasmodium falciparum)",
    "unit_string": "%",
    "numeric_value": 1.37
  },
  {
    "compound": "CC[C@H]1CN2CC[C@H]1C[C@H]2[C@H](O)c1cc(/C=C/c2ccccc2)nc2ccc(OC)cc12",
    "target_desc": "Hexose transporter 1 (Plasmodium falciparum)",
    "unit_string": "%",
    "numeric_value": -0.83
  }
]

May I ask what inhibition has been recorded for O=C(NC1CCC(CN2CCC(c3c[nH]c4ccccc34)CC2)CC1)c1cc2cccc([N+](=O)[O-])c2[nH]1 (configuration not stated) ?
2.66

Name the reported inhibition value associated with the compound COc1cccc(CN2CCC(CCOC(c3ccccc3)c3ccc(Cl)cc3)CC2)c1O (configuration not stated)
26.5

Any idea what its inhibition is? The compound is O=C1NCN(c2ccc(O)cc2)C12CCN(CCCC(c1ccc(F)cc1)c1ccc(F)cc1)CC2
3.34

Reported inhibition, compound Cc1[nH]c2ccccc2c1C1=CCN(CCCCC2(C)C(=O)Nc3cccc(F)c32)CC1 (configuration not stated) : ____
-0.62

So what's the measured inhibition for this one? Cc1nc(-c2ccc(-c3ccc(C(=O)Nc4ccc5c(c4)C4(CCNCC4)CO5)cc3)c(C)c2)no1
5.12

inhibition for COc1cc(NCCCNC(=O)c2cn(Cc3ccccc3)c3ccccc23)nc2ccccc12 ?
-0.48

What value of measured inhibition is listed for Cc1[nH]c2cc(Cl)ccc2c1C1=CCN(CCCCC2(C)C(=O)Nc3c(F)cccc32)CC1 (configuration not stated) ?
0.61

Consider the compound shown here: CC(=O)N(Cc1ccccc1-c1ccc(CNCCc2ccccc2)cc1)C1CCN(Cc2ccccc2)CC1 What is its recorded inhibition?
2.41
